These entries and their values trace back to patent US8815909B2.

- target_under_test: human Y4 receptor (Homo sapiens, UniProt P50391)
- Construct: expressed in transfected cells
- Sequence (P50391 whole entry): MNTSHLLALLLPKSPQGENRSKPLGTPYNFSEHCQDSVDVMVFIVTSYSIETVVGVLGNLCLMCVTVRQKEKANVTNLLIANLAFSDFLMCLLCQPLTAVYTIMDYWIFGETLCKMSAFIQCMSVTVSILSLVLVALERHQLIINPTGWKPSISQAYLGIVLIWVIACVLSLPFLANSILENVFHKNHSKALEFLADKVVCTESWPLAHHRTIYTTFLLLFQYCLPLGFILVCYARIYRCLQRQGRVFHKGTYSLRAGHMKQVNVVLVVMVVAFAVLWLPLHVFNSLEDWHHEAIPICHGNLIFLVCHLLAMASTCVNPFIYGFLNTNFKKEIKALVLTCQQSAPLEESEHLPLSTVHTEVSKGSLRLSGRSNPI
- protocol_description: NPY4 cAMP HTRF Agonist Assay (inhibitory cAMP assay, Gi activation by Y4 agonism)
- Type: cell-based
- run_conditions: human Y4 receptor, cAMP; read-out: hY4 CAMP EC50
pEC50: −log10 of the molar value.
Below: a set of entries, each annotated with reported pEC50.

mol_smiles	pEC50
CNC(=O)c1cccc(-c2cnc(N[C@@H]3CCCC[C@H]3N[C@H]3CCCN(c4ccc5ncnn5c4)C3)o2)c1	7.24
Cn1cnc(-c2ccc(N3CCC[C@H](N[C@@H]4CCCC[C@H]4Nc4cc(-c5cccc(O)c5)ccn4)C3)cc2)n1	7.55
Cn1nnc(-c2ccc(N3CCC[C@H](N[C@@H]4CCCC[C@H]4Nc4cc(-c5cccc(NS(C)(=O)=O)c5)ccn4)C3)cc2)n1	8.22
CNC(=O)c1cccc(-c2ccnc(N[C@@H]3CCCC[C@H]3N[C@H]3CCCN(c4cnc(-c5noc(C)n5)nc4)C3)c2)c1	7.38

* * *

Each entry below carries its recorded log10 EC50.
- target_under_test: human Y4 receptor (Homo sapiens, UniProt P50391)
- Construct: expressed in transfected cells
- protocol_description: NPY4 cAMP HTRF Agonist Assay (inhibitory cAMP assay, Gi activation by Y4 agonism)
- Assay type: cell-based
- run_conditions: human Y4 stable CHO clonal cells, forskolin + IBMX; read-out: NPY4 cAMP HTRF Agonist Assay EC50
Counter-ions that a name gives are not always drawn.
measured_parameter: log10 EC50 (log10 of the value in nM)

molecule	log10 EC50
Cn1nccc1-c1ccnc(N[C@@H]2CCCC[C@H]2N[C@H]2CCCN(c3ccc(C#N)cc3)C2)c1 [Example 34, tris-trifluoroacetate]	2.18
N#Cc1ccc(N2CCC[C@H](N[C@@H]3CCCC[C@H]3Nc3cc(-c4cc[nH]n4)ccn3)C2)cc1 [Example 33, tris-trifluoroacetate]	2.51
N#Cc1ccc(N2CCC[C@H](N[C@@H]3CCCC[C@H]3Nc3cc(-c4ccc(F)cc4)ccn3)C2)cc1 [Example 44, tris-trifluoroacetate]	1.70
CC(C)(C)OC(=O)/C=C/c1ccnc(N[C@@H]2CCCC[C@H]2N[C@H]2CCCN(c3ccc(C#N)cc3)C2)c1 [Example 109]	2.08
Ic1ccc(N2CCC[C@H](N[C@@H]3CCCC[C@H]3Nc3nccc(-c4ccccc4)n3)C2)cc1 [Example 92, bis-trifluoroacetate]	2.67
N#Cc1ccc(N2CCC[C@H](N[C@@H]3CCCC[C@H]3Nc3cc(-c4ccccc4F)ccn3)C2)cc1 [Example 37, tris-trifluoroacetate]	1.91
Cc1ccn(-c2ccc(N3CCC[C@H](N[C@@H]4CCCC[C@H]4Nc4nccc(-c5ccccc5)n4)C3)cc2)n1 [Example 67, bis-trifluoroacetate]	1.76
N#Cc1ccnc(N[C@@H]2CCCC[C@H]2N[C@H]2CCCN(c3ccc(C(F)(F)F)cc3)C2)c1 [Example 114, bis trifluoroacetic acid salt]	1.85
N#Cc1ccc(N2CCC[C@H](N[C@@H]3CCCC[C@H]3Nc3ncc(-c4ccccc4)o3)C2)cc1F [Example 48, bis-trifluoroacetate]	0.78
FC(F)(F)Oc1ccc(N2CCC[C@H](N[C@@H]3CCCC[C@H]3Nc3nccc(-c4ccccc4)n3)C2)cc1 [Example 88]	2.85
O=[N+]([O-])c1ccc(N2CCC[C@H](N[C@@H]3CCCC[C@H]3Nc3ncc(-c4ccc(F)cc4F)o3)C2)cc1 [Example 20]	1.00
N#Cc1ccc(N2CCC[C@H](N[C@@H]3CCCC[C@H]3Nc3ncc(-c4cccc(F)c4)o3)C2)cc1 [Example 35]	1.62
O=[N+]([O-])c1ccc(N2C[C@@H]3C[C@H](N[C@@H]4CCCC[C@H]4Nc4ncc(-c5ccccc5F)o4)[C@H]2C3)cc1 [Example 15]	0.90

* * *

- target_under_test: human Y4 receptor (Homo sapiens, UniProt P50391)
- Construct: expressed in transfected cells
- protocol_description: NPY4 cAMP HTRF Agonist Assay (inhibitory cAMP assay, Gi activation by Y4 agonism)
- Assay type: cell-based
- run_conditions: TABLE 2, R2 is Phenyl-CN; read-out: hY4 CAMP EC50
pEC50: −log10 of the molar value.
Measured pEC50, listed per entry for reference.

mol_smiles	pEC50
COC(=O)Nc1cccc(-c2cnc(N[C@@H]3CCCC[C@H]3N[C@H]3CCCN(c4ccc(C#N)cc4)C3)o2)c1	9.00
C[C@]1(N[C@@H]2CCCC[C@H]2Nc2ncc(-c3cccc(C(N)=O)c3)o2)CCCN(c2ccc(C#N)cc2)C1	8.70
COc1cccc(-c2ccnc(N[C@@H]3CCCC[C@H]3N[C@H]3CCCN(c4ccc(C#N)cc4)C3)c2)c1	7.06
N#Cc1ccc(N2C[C@@H]3C[C@H](N[C@@H]4CCCC[C@H]4Nc4ncc(-c5ccccc5F)o4)[C@H]2C3)cc1	8.30

* * *

- target_under_test: human Y4 receptor (Homo sapiens)
- Construct: expressed in transfected cells
- protocol_description: NPY4 cAMP HTRF Agonist Assay (inhibitory cAMP assay, Gi activation by Y4 agonism)
- Type: cell-based
- run_conditions: human Y4 stable CHO clonal cells, forskolin + IBMX; read-out: NPY4 cAMP HTRF Agonist Assay EC50
As shown below, each of these compounds has a reported EC50 value.

compound	target_under_test	EC50 (nM)
Fc1cc(N2CCC[C@H](N[C@@H]3CCCC[C@H]3Nc3ncc(-c4ccc(OC(F)(F)F)cc4)o3)C2)ccc1C(F)(F)F [Example 73, bis-trifluoroacetate]	human Y4 receptor (Homo sapiens)	83
N#Cc1ccc(N2CCC[C@H](N[C@@H]3CCCC[C@H]3Nc3cc(/C=C\C(N)=O)ccn3)C2)cc1	human Y4 receptor (Homo sapiens)	515
O=[N+]([O-])c1cnc(N2CCC[C@H](N[C@@H]3CCCC[C@H]3Nc3ncc(-c4ccc(OC(F)(F)F)cc4)o3)C2)nc1 [Example 78, bis-trifluoroacetate]	human Y4 receptor (Homo sapiens)	75
COc1ccc(-c2ccnc(N[C@@H]3CCCC[C@H]3N[C@H]3CCCN(c4ccc([N+](=O)[O-])cc4)C3)n2)cc1	human Y4 receptor (Homo sapiens)	241
FC(F)(F)Oc1ccc(-c2cnc(N[C@@H]3CCCC[C@H]3N[C@H]3CCCN(c4ccc(OC(F)(F)F)cc4)C3)o2)cc1	human Y4 receptor (Homo sapiens)	185
O=[N+]([O-])c1ccc(N2CCC[C@H](N[C@@H]3CCCC[C@H]3Nc3cc(-c4ccc(OC(F)(F)F)cc4)ccn3)C2)cc1	human Y4 receptor (Homo sapiens)	69
N#Cc1cnc(N[C@@H]2CCCC[C@H]2N[C@H]2CCCN(c3ccc(C(F)(F)F)cc3)C2)o1	human Y4 receptor (Homo sapiens)	91
N#Cc1ccc(N2C[C@@H]3CC(N[C@@H]4CCCC[C@H]4Nc4ncc(-c5ccc(OC(F)(F)F)cc5)o4)[C@H]2C3)cc1 (stereo partly drawn)	human Y4 receptor (Homo sapiens)	10
O=C(Nc1nncs1)c1ccnc(N[C@@H]2CCCC[C@H]2N[C@H]2CCCN(c3ccc(C(F)(F)F)cc3)C2)c1	human Y4 receptor (Homo sapiens)	590
O=[N+]([O-])c1ccc(N2CCC[C@H](N[C@@H]3CCCC[C@H]3Nc3cc(-c4ccccc4)ccn3)C2)cc1	human Y4 receptor (Homo sapiens)	14
N#Cc1ccc(N2CCC[C@H](N[C@@H]3CCCC[C@H]3Nc3ncc(-c4ccc(OC(F)(F)F)cc4)o3)C2)cc1F [Example 49, bis-trifluoroacetate]	human Y4 receptor (Homo sapiens)	2
FC(F)(F)Oc1ccc(-c2cnc(N[C@@H]3CCCC[C@H]3N[C@H]3CCCN(c4ccc(C(F)(F)F)cn4)C3)o2)cc1	human Y4 receptor (Homo sapiens)	210
N#Cc1cnc(N2CCC[C@H](N[C@@H]3CCCC[C@H]3Nc3ncc(-c4ccccc4)o3)C2)nc1	human Y4 receptor (Homo sapiens)	107
N#Cc1ccc(N2CCC[C@H](N[C@@H]3CCCC[C@H]3Nc3ncc(-c4ccc(OC(F)(F)F)cc4)o3)C2)cc1	human Y4 receptor (Homo sapiens)	23
O=[N+]([O-])c1ccc(N2CCC[C@H](N[C@@H]3CCCC[C@H]3Nc3ncc(-c4ccccc4)s3)C2)cc1	human Y4 receptor (Homo sapiens)	8
CCOC(=O)Nc1cccc(-c2cnc(N[C@@H]3CCCC[C@H]3N[C@H]3CCCN(c4ccc(C(F)(F)F)cc4)C3)o2)c1	human Y4 receptor (Homo sapiens)	2
N#Cc1ccc(N2CCC[C@H](N[C@@H]3CCCC[C@H]3Nc3nc4ccccc4o3)C2)cc1	human Y4 receptor (Homo sapiens)	463
O=[N+]([O-])c1ccc(N2CCC[C@H](N[C@@H]3CCCC[C@H]3Nc3ncc(-c4ccc(F)c(F)c4)o3)C2)cc1	human Y4 receptor (Homo sapiens)	26
N#Cc1ccc(N2CCC[C@H](N[C@@H]3CCCC[C@H]3Nc3ncc(-c4ccccc4F)o3)C2)cc1Cl [Example 39, bis-trifluoroacetate]	human Y4 receptor (Homo sapiens)	35
COc1cccc(-c2ccnc(N[C@@H]3CCCC[C@H]3N[C@H]3CCCN(c4ccc([N+](=O)[O-])cc4)C3)n2)c1	human Y4 receptor (Homo sapiens)	203
Fc1cccc(-c2cnc(N[C@@H]3CCCC[C@H]3N[C@H]3CCCN(c4ccc(C(F)(F)F)cc4)C3)o2)c1	human Y4 receptor (Homo sapiens)	21
